Below, each entry is listed alongside its reported protein stability index.
B1: IQUB (parent)
chain: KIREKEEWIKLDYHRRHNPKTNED

Variants of: B1
Assay: protein stability index of a GFP-peptide fusion (GPS, HEK-293T) (PSI 1-6); higher = more stable;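 note: lentivirally expressed fusions sorted by FACS into six bins by GFP to DsRed ratio, PSI derived from sequencing read proportions per bin multiplied by bin number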
Conditions: c terminus: a fixed tail appended
reported property: protein stability index

variant_code=N22D reported_property="protein stability index" obs_value=4.7
variant_code=N22R reported_property="protein stability index" obs_value=4.03
variant_code=W8R reported_property="protein stability index" obs_value=4.91
variant_code=H14P reported_property="protein stability index" obs_value=4.51
variant_code=E23I reported_property="protein stability index" obs_value=4.13
variant_code=P19G reported_property="protein stability index" obs_value=4.46
variant_code=D12C reported_property="protein stability index" obs_value=3.93
variant_code=E7V reported_property="protein stability index" obs_value=3.99
